- System name: Hsp82 (Saccharomyces cerevisiae, UniProt P02829)
- Sequence (P02829 whole entry): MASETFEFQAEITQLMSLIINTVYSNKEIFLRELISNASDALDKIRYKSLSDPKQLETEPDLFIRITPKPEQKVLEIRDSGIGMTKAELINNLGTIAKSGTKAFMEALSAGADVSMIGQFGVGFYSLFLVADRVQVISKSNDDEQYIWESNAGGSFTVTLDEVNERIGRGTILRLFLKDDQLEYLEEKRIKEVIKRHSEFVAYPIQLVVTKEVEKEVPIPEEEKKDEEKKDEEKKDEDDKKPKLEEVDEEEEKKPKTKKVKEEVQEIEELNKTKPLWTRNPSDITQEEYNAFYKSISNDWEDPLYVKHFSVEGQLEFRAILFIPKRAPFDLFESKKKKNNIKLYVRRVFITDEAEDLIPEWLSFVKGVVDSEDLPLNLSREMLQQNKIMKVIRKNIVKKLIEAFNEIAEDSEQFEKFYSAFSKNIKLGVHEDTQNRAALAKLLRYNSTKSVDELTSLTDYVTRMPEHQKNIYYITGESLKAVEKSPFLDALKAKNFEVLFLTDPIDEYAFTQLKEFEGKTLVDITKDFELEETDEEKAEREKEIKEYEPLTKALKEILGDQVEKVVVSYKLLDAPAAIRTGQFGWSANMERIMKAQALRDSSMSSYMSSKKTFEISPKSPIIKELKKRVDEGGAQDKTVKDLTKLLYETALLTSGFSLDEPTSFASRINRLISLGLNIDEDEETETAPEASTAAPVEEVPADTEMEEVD
- Test description: Hsp82/ATPase test (malachite green or PK/LDH coupled method)
- Type: biochemical
Reported metric: IC50

Query :: Data request, read-out IC50, for CN1C2CCC1CC(Nc1cc(-n3c4ccccc4c4c(-c5cnc6ccccc6c5)cccc43)ccc1C(N)=O)C2 (stereo not shown)
Result :: < 1 µM

----------
- System name: Hsp82 (Saccharomyces cerevisiae)
- Test description: Hsp82/ATPase test (malachite green or PK/LDH coupled method)
- Assay type: biochemical
- Test parameters: 1 μM Hsp82, 250 μM ATP, 37° C.; read-out: Hsp82 ATPase IC50
Kindly supply the reported IC50 values for the records listed here.

Query :: // lookup IC50 | system=Hsp82 (Saccharomyces cerevisiae) | key= NC(=O)c1ccc(-n2c3ccccc3c3c(-c4nc5ccc(F)cc5[nH]4)cccc32)cc1NCCCO
Result :: < 1 µM

Query :: Do the same for CC(O)CNc1cc(-n2c3ccccc3c3c(-c4nc5ccc(F)cc5[nH]4)cccc32)ccc1C(N)=O (racemic) please
Result :: < 1 µM

Query :: Also check NCC(CO)Oc1cc(-n2c3ccccc3c3c(-c4nc5ccc(F)cc5[nH]4)cccc32)ccc1C(N)=O (centres unmarked)
Result :: 1 to 10 µM

Query :: Same question, Nc1n[nH]c2cc(-n3c4ccccc4c4c(-c5nc6ccc(F)cc6[nH]5)cccc43)ccc12 this time
Result :: 1 to 10 µM

Query :: Can you handle NC(=O)c1ccc(-n2c3ccccc3c3c(-c4cncc(OCc5ccccc5)c4)cccc32)cc1N[C@H]1CC[C@H](O)CC1 next?
Result :: 1 to 10 µM

Query :: NC(=O)c1ccc(-n2c3ccccc3c3c(-c4nc5ccc(F)cc5[nH]4)cccc32)cc1NCCN1CCCC1 , same question.
Result :: < 1 µM

Query :: Then what about the molecule NC(=O)c1ccc(-n2c3ccccc3c3c(-c4nc5ccc(F)cc5[nH]4)cccc32)cc1NCCO ?
Result :: < 1 µM

Query :: Can you check Nc1noc2cc(-n3c4ccccc4c4c(-c5nc6ccc(F)cc6[nH]5)cccc43)ccc12 next?
Result :: 1 to 10 µM

Query :: Okay, and NCCCC[C@@H](N)C(=O)O[C@H]1CC[C@H](Nc2cc(-n3c4ccccc4c4c(-c5nc6ccc(F)cc6[nH]5)cccc43)ccc2C(N)=O)CC1 (stereo in doubt) ?
Result :: < 1 µM

Query :: Also NC(=O)c1ccc(-n2c3ccccc3c3c(-c4nc5ccc(F)cc5[nH]4)cccc32)cc1NCc1ccoc1 , if possible.
Result :: 1 to 10 µM

Query :: And then NC(=O)c1ccc(-n2c3ccccc3c3c(-c4nc5ccc(F)cc5[nH]4)cccc32)cc1NCc1ccn[nH]1 , what is it?
Result :: 1 to 10 µM

Query :: Now the molecule CC(C)(O)CCNc1cc(-n2c3ccccc3c3c(-c4nc5ccc(F)cc5[nH]4)cccc32)ccc1C(N)=O
Result :: 1 to 10 µM

Query :: Okay, and CCOCCNc1cc(-n2c3ccccc3c3c(-c4nc5ccc(F)cc5[nH]4)cccc32)ccc1C(N)=O ?
Result :: 1 to 10 µM

Query :: Same read-out for N#Cc1ccc(-c2cccc3c2c2ccccc2n3-c2ccc(C(N)=O)c(N[C@H]3CC[C@H](O)CC3)c2)cn1 ?
Result :: < 1 µM
